assayed_system: 5'-nucleotidase (Rattus norvegicus, UniProt P21588)
Sequence (P21588 whole entry): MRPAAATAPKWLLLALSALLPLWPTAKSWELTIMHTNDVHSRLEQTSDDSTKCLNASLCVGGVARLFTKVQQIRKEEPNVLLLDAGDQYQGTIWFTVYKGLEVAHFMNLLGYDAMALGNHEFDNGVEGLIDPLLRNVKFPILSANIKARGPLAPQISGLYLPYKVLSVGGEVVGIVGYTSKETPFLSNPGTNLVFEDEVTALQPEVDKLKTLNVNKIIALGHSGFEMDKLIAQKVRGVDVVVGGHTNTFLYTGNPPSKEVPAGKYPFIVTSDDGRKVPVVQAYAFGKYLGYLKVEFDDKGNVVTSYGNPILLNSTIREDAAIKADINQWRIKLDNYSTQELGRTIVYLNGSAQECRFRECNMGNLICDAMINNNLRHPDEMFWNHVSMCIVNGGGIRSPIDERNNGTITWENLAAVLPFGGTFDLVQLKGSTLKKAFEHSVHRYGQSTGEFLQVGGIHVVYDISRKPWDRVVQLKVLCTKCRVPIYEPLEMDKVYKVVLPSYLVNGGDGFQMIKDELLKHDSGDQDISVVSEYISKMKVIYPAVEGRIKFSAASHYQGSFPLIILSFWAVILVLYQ
experiment_notes: Inhibition of rat Ecto-5'-nucleotidase transfected in COS7 cells preincubated for 10 mins followed by AMP addition measured after 10 mins
Can you tell me IC50 for the items I'm about to list?

Below, each entry is followed by its recorded IC50 result.
compound: COC1Oc2ccc(Cl)cc2C(=O)/C1=C\Nc1cccc(S(N)(=O)=O)c1 (racemic)
IC50: 2380 nM
//
compound: COC1Oc2ccc(Cl)cc2C(=O)/C1=C\Nc1ccccc1S(N)(=O)=O (racemic)
IC50: 1310 nM
//
compound: COC1Oc2ccc(Cl)cc2C(=O)/C1=C\Nc1ccc(S(N)(=O)=O)cc1 (racemic)
IC50: 1710 nM
//
compound: O=c1c(C2Nc3ccccc3S(=O)(=O)N2)coc2ccc(F)cc12 (racemic)
IC50: 2710 nM
//
compound: CCOC1Oc2ccccc2C(=O)/C1=C\Nc1ccc(S(=O)(=O)Nc2ccccn2)cc1 (racemic)
IC50: 15200 nM
//
compound: CCOC1Oc2ccc(CC)cc2C(=O)/C1=C\Nc1ccccc1S(N)(=O)=O (racemic)
IC50: 101 nM

Provide IC50 for all items below, preserving their order.
1. CCCCOC1Oc2ccccc2C(=O)/C1=C\Nc1cccc(S(N)(=O)=O)c1 (racemic)
2. CCOC1Oc2ccc(F)cc2C(=O)/C1=C\Nc1ccc(S(N)(=O)=O)cc1 (racemic)
3. O=c1c(C2Nc3ccccc3S(=O)(=O)N2)coc2ccccc12 (racemic)

Reply text:
1: 3610 nM; 2: 2130 nM; 3: 3810 nM

Provide IC50 for all items below, preserving their order.
1. COC1Oc2c(Cl)cc(Cl)cc2C(=O)/C1=C\Nc1cccc(S(N)(=O)=O)c1 (racemic)
2. CCOC1Oc2c(Br)cc(Br)cc2C(=O)/C1=C\Nc1cccc(S(N)(=O)=O)c1 (racemic)
3. COC1Oc2ccccc2C(=O)/C1=C\Nc1ccccc1S(N)(=O)=O (racemic)

Reply text:
1: 4810 nM; 2: 583 nM; 3: 2390 nM

Provide IC50 for all items below, preserving their order.
1. CCOC1Oc2c(Br)cc(Br)cc2C(=O)/C1=C\Nc1ccccc1S(N)(=O)=O (racemic)
2. COC1Oc2ccccc2C(=O)/C1=C\Nc1cccc(S(N)(=O)=O)c1 (racemic)
3. CCOC1Oc2ccc(CC)cc2C(=O)/C1=C\Nc1ccc(S(N)(=O)=O)cc1 (racemic)
4. CCOC1Oc2ccccc2C(=O)/C1=C\Nc1ccc(S(=O)(=O)Nc2ccc(OC)nn2)cc1 (racemic)
5. CCOC1Oc2ccc(Br)cc2C(=O)/C1=C\Nc1cccc(S(N)(=O)=O)c1 (racemic)
6. CCOC1Oc2ccc(F)cc2C(=O)/C1=C\Nc1cccc(S(N)(=O)=O)c1 (racemic)

Reply text:
1. 40100 nM
2. 2810 nM
3. 3730 nM
4. 1090 nM
5. 6130 nM
6. 990 nM
